Data provenance is patent US20260356851A1.

# assayedTarget: pERK1/2 (Thr202/Tyr204), PANC-1 (KRAS G121D) (Homo sapiens, UniProt P01116, G12D)
# Construct: pERK1/2 HTRF read-out
# Sequence (P01116 1-188 isoform P01116-2 G12D): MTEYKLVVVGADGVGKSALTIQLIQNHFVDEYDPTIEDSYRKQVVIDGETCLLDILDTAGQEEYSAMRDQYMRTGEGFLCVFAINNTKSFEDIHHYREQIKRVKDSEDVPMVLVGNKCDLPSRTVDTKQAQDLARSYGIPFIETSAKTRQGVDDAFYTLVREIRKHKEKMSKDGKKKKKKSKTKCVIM
# testDetails: Assay of intracellular pERK1/2 (Thr202/Tyr204) phosphorylation in PANC-1 cells (KRAS G12D)
# Format: cell-based
# testContext: pERK1/2, 2 days, read-out: PANC-1 (KRAS G12D) IC50
measurementName: IC50 (nM)

1. CCc1c(F)ccc2cc(O)cc(-c3nc4c5c(nc(OC[C@@]67CCCN6C[C@H](F)C7)nc5c3F)N(C(C)c3cccnc3NC(=O)[C@H](C)N)[C@@H](C)CO4)c12 (stereo partly shown)
2. CC(c1cccnc1N)N1CCOc2nc(-c3cc(N)c(F)c(Cl)c3C(F)(F)F)c(F)c3nc(OC[C@@H]4C[C@@H](F)CN4C)nc1c23 (stereo partly shown)
3. [2H]C1([2H])CC[C@@]2(C([2H])([2H])Oc3nc4c5c(nc(-c6cc(N)ccc6C(F)(F)F)c(F)c5n3)OCCN4C(C)c3cccnc3N)C[C@@H](F)CN12 (stereo partly shown)
Q. Going from lowest to highest recorded IC50, rank the entries listed above. Arrange the labels as the request states and list them.
A. 1, 2, 3
(1: 0.5 nM, 2: 11 nM, 3: 26 nM)

###

# assayedTarget: pERK1/2 (Thr202/Tyr204), NCI-1H441 (KRAS G12V) (Homo sapiens, UniProt P01116, G12V)
# Construct: pERK1/2 HTRF read-out
# Sequence (P01116 1-188 isoform P01116-2 G12V): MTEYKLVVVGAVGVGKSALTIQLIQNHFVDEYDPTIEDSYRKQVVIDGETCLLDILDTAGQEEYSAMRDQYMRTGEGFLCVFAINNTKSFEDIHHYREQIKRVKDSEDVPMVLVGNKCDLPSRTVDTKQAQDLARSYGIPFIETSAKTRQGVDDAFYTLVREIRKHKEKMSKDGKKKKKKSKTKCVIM
# testDetails: Assay of intracellular pERK1/2 (Thr202/Tyr204) phosphorylation in NCI-H441 cells (KRAS G12V)
# Assay type: cell-based
# testContext: pERK1/2, 2 days, read-out: NCI-H441 (KRAS G12V) IC50
measurementName: IC50 (nM)

{"columns": ["compound", "IC50 [nM]"],
 "data": [
  ["CC(c1cccnc1N)N1CCOc2nc(-c3cc(O)cc4ccc(F)c(F)c34)c(F)c3nc(OC[C@@H]4CCN4CC(F)F)nc1c23 (stereo partly drawn)", 2]
]}

a. Cc1cc(N)cc(-c2nc3c4c(nc(OC[C@@]56CCCN5C[C@H](F)C6)nc4c2F)N(C(C)c2cccnc2N)CCO3)c1C(F)(F)F (single isomer, unassigned) [Compound 61]
b. Cc1cc2[nH]ncc2c(-c2nc3c4c(nc(OC[C@@]56CCCN5C[C@H](F)C6)nc4c2F)N(C(C)c2cccnc2N)CCO3)c1C(F)(F)F (stereo partly drawn)
Q. Lab note: record which item had the higher IC50, a or b . Write down the label attached to your selection.
A. b

###

# assayedTarget: pERK1/2 (Thr202/Tyr204), PANC-1 (KRAS G121D) (Homo sapiens, UniProt P01116, G12D)
# Construct: pERK1/2 HTRF read-out
# testDetails: Assay of intracellular pERK1/2 (Thr202/Tyr204) phosphorylation in PANC-1 cells (KRAS G12D)
# Format: cell-based
# testContext: pERK1/2, 2 days, read-out: PANC-1 (KRAS G12D) IC50
# Text: Example 2: Assay of intracellular pERK1/2 (Thr202/Tyr204)phosphorylation 1. […] Fluorescence ratio=fluorescence value665 nm/fluorescence value615 nm Inhibition rate (%)=100−((fluorescence ratio of compound well−fluorescence ratio of negative control well)/(fluorescence ratio of positive control well−fluorescence ratio of negative control well))×100 […]
measurementName: IC50 (nM)

{"columns": ["molecule", "assayedTarget", "measurementUnit", "IC50"],
 "data": [
  ["CC(c1cccnc1N)N1c2nc(OC[C@@]34CCCN3C[C@H](F)C4)nc3c(F)c(-c4c5cn[nH]c5cc5cccc(F)c45)nc(c23)OC[C@@H]1C (some centres unmarked) [Compound 362]", "pERK1/2 (Thr202/Tyr204), PANC-1 (KRAS G121D) (Homo sapiens, UniProt P01116, G12D)", "nM", 0.4]
]}

1. C[C@@H](c1cccnc1N)N1CCOc2nc(-c3c(C(F)(F)F)ccc4[nH]ncc34)c(F)c3nc(OC[C@@]45CCCN4C[C@H](F)C5)nc1c23 (single isomer, unassigned) [Compound 27]
2. CC(c1cccnc1N)N1c2nc(OC[C@@]34CCCN3C[C@H](F)C4)nc3c(F)c(-c4c5c(cc6[nH]ncc46)CCC(F)(F)C5)nc(c23)OC[C@@H]1C (some centres unmarked) [Compound 376]
3. Cc1nc(N)cc(-c2nc3c4c(nc(OC[C@@]56CCCN5C[C@H](F)C6)nc4c2F)N(C(C)c2cccnc2N)[C@@H](C)CO3)c1C(F)(F)F (some centres unmarked) [Compound 311]
Q. Hey, quick one: sort these by IC50, low to high? List the labels in the requested order.
A. 2, 3, 1
(2: 4 nM, 3: 6 nM, 1: 106 nM)
